- Tested system: human cloned somatostatin receptor 1 (human) (UniProt P30872)
- Sequence (P30872 whole entry): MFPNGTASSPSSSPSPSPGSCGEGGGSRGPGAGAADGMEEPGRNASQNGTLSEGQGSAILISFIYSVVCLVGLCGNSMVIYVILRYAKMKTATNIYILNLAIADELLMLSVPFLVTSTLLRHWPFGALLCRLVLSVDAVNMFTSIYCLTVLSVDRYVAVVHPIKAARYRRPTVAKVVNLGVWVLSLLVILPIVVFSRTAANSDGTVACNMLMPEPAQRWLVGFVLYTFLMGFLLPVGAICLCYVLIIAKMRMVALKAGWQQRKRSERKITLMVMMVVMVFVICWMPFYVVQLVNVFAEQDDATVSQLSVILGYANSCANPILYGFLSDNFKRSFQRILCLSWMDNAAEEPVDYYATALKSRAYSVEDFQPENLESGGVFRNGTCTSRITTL
- Protocol details: 125I-Tyr11-SRIF-14 displacement
*1 amine or outer side, *2 acyl side, *3 side chain or, on linkers, in order; H or OH if unused. Bridges are numbered along the chain shown (N, C = ends). [ ]: non-standard residue; d: D form. The star is where a group is joined. DOTA = O=C(O)CN1CCN(CC(=O)O)CCN(CC(=O)*)CCN(CC(=O)O)CC1; N(2-mercaptoethyl)Gly = O=C(CN(CCS[*:3])[*:1])[*:2]; GABA = NCCCC(=O)O
% displacement at 10 nM values by entry
Kindly answer with a numeric value in %, unit omitted.

- {DOTA-GABA}-[dF]RCF[dW]KTF[N(2-mercaptoethyl)Gly]-NH2 (disulfide 3-9; also: Ga complex of DOTA) [SEQ ID NO: 8]: 10

With those in mind, consider the next binder.
Input: Reported % displacement at 10 nM for H-XRCF[dW]KTY[N(2-mercaptoethyl)Gly]-NH2 (disulfide 3-9; not fully specified (residue 1); printed as H-Phe1-Arg2-Cys3-Phe4-D-Trp5-Lys6-Thr7-Tyr8-NTEG9-NH2 (cyclo 3-9)) [SEQ ID NO: 26] : what is it?
Output: 24
